FYI, the data here is from patent US20260116991A1.

Molecular target: T1, human GPC3-His protein (human, UniProt P51654 25-559)
T1 construct: Bought protein; also called human GPC3 protein; not shown: His tag
Experiment: ELISA, coated human GPC3, antibody 1 nM;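 further: antigen coated at 1 µg/mL on 96-well plates, antibody bound for 2 h at 37 °C, detected with HRP-labeled secondary antibody and TMB, absorbance read at 450 nm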
OBSERVED_PROPERTY: OD450 nm
Answer with the figure and its unit, nothing else.

Example entries and their recorded answers appear below.
F1.62.9 human-murine chimeric antibody (antibody, human IgG1, kappa, V domains shown) VH: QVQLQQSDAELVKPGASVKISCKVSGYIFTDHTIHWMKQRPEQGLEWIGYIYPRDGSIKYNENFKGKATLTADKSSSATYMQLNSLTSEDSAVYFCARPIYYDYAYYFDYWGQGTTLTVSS VL: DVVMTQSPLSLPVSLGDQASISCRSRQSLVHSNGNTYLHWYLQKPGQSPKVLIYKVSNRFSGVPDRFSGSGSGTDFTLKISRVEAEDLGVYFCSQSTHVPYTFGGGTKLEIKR: 0.63 OD450
F1.21.8 human-murine chimeric antibody (antibody, human IgG1, kappa, V domains shown) VH: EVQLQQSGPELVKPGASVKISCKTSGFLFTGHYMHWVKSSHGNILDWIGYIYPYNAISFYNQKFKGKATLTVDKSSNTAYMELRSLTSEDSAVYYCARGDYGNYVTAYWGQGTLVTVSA VL: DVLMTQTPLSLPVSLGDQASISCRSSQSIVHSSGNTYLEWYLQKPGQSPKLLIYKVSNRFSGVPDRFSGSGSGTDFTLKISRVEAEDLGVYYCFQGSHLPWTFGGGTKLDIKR: 1.71 OD450
F2.169.2 human-murine chimeric antibody (antibody, human IgG1, kappa, V domains shown) VH: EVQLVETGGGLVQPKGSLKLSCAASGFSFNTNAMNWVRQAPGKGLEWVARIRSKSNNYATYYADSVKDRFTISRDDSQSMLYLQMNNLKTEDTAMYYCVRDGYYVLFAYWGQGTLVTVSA VL: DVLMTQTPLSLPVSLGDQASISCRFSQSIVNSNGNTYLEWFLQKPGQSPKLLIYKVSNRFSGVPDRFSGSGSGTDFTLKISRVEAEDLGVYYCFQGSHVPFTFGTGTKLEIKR: 2.24 OD450
F1.3.9 human-murine chimeric antibody (antibody, human IgG1, kappa, V domains shown) VH: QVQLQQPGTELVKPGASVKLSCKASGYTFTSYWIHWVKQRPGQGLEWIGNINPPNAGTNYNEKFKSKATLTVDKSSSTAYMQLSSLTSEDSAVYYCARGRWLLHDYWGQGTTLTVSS VL: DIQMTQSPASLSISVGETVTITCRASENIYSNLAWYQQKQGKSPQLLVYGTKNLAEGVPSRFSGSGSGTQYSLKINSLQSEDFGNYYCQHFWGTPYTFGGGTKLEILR: 1.66 OD450

Moving on to the next binder.
Problem: Given F1.57.21 human-murine chimeric antibody (antibody, human IgG1, kappa, V domains shown) VH: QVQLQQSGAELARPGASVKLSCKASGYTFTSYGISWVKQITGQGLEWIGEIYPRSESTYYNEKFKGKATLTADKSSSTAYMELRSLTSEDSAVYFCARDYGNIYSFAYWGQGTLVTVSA VL: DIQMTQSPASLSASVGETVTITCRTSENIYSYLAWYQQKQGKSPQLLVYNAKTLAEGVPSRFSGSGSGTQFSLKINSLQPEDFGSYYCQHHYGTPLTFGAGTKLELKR , respond with its OD450 nm.
Solution: 1.5 OD450
